target: JNK3 kinase (Homo sapiens, UniProt P53779)
Sequence (P53779 whole entry): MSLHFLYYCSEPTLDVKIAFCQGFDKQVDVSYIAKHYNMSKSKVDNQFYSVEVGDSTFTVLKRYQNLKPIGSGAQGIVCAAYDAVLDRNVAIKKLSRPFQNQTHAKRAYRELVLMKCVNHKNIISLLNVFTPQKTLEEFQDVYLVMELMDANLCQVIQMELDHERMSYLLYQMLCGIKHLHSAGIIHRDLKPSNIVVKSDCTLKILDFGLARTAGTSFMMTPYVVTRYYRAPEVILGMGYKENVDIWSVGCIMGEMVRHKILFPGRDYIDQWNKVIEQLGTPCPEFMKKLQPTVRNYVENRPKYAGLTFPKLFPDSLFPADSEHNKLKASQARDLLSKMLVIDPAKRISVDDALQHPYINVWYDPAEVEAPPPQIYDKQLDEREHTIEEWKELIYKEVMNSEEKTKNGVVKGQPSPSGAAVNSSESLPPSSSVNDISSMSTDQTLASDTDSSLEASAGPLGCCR
property_name: IC50 (nM)
Numbers only, in nM.

Documented IC50 of CN(C)c1ccc(-c2cnc3[nH]ccc3c2)cc1 [Compound 1] : 1200
